Test system: C. elegans
Assay: C. elegans dose-response (viability, minimum lethal concentration)
Format: in vivo, Caenorhabditis elegans
Conditions: Caenorhabditis elegans, 72 h; L1 worms, 3 days at 20° C.; lowest concentration at which at least 20% of worms die; read-out: Minimum Lethal Concentration
quantity_name: minimal effective concentration (µM)
State just the number; it will be interpreted in µM.

Would you please look over these solved cases?
compound="Clc1ccc(-c2cn3ccsc3n2)c(Cl)c1 [I-32]" unit_label=µM result=6.25
compound="CCc1cccc(-c2cn3ccsc3n2)c1 [I-11]" unit_label=µM result=100
compound="Cc1c(-c2cccc(Cl)c2)nc2sccn12 [I-24]" unit_label=µM result=100
compound="Ic1ccccc1-c1cn2ccsc2n1 [I-43]" unit_label=µM result=50
compound="Brc1cccc(-c2cn3ccsc3n2)c1 [I-34]" unit_label=µM result=50

Lookup: Given the compound CC(C)(C)c1ccc(-c2cn3ccsc3n2)cc1 [I-12] , what is its reported minimal effective concentration?
Found: 100

Lookup: Given the compound Fc1cccc(-c2cn3ccsc3n2)c1 [I-14] , what is its reported minimal effective concentration?
Found: 100

Lookup: Given the compound Cc1cn2cc(-c3ccccc3F)nc2s1 [I-21] , what is its reported minimal effective concentration?
Found: 50

Where do the numbers come from? From patent US20240109914A1.
